Values were extracted from the supplement of paper PMC5908809.

Tested on: normal primary NK cells, pool 3 (3 donors) (IL-2 2.5 ng/mL)
MEASUREMENT NOTES: percent inhibition of viability; higher = more inhibition;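 further: normalised to DMSO-only wells as negative and benzethonium chloride as positive control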
MEASUREMENT PARAMETERS: 72 h; 1000 nM
Below is a list of entries, each paired with its recorded percent inhibition of viability value.
Use % as the unit, but write only the number.

Study these solved cases before continuing.
- MOLECULE: "CN1CCN(c2cc(C(=O)Nc3ccc4c(c3)-c3c(c(C(N)=O)nn3-c3ccc(F)cc3)CC4)c(Cl)cn2)CC1 [PHA 408] (max concentration tested 10000 nM)"
  percent inhibition of viability (%): 4.36
- MOLECULE: "CS(=O)(=O)CCNCc1ccc(-c2ccc3ncnc(Nc4ccc(OCc5cccc(F)c5)c(Cl)c4)c3c2)o1 [Lapatinib] (max concentration tested 1000 nM)"
  percent inhibition of viability (%): -0.3
- MOLECULE: "C=CC[C@@H]1/C=C(\\C)C[C@H](C)C[C@H](OC)[C@H]2O[C@@](O)(C(=O)C(=O)N3CCCC[C@H]3C(=O)O[C@H](/C(C)=C/[C@@H]3CC[C@@H](O)[C@H](OC)C3)[C@H](C)[C@@H](O)CC1=O)[C@H](C)C[C@@H]2OC [Tacrolimus] (max concentration tested 10000 nM)"
  percent inhibition of viability (%): -2.25
- MOLECULE: "COc1cc2ncnc(Nc3ccc(F)c(Cl)c3)c2cc1OCCCN1CCOCC1 [Gefitinib] (max concentration tested 10000 nM)"
  percent inhibition of viability (%): -13.2

Problem: // percent inhibition of viability lookup, key: O=C(Nc1ccc2[nH]nc(-c3ccncc3)c2c1)[C@@H]1CCN(CC(=O)N2CCN(c3ccc(-c4ncccn4)cc3)CC2)C1 (max concentration tested 10000 nM)
Solution: -10.8

Problem: // percent inhibition of viability lookup, key: CCOC(=O)CCNc1cc(N2CCc3ccccc3CC2)nc(-c2ccccn2)n1 [GSK-J4] (max concentration tested 100000 nM)
Solution: 19.9

Problem: // percent inhibition of viability lookup, key: S=c1[nH]cnc2nc[nH]c12 [Mercaptopurine] (max concentration tested 10000 nM)
Solution: -7.89

Problem: // percent inhibition of viability lookup, key: CN(C)C(=O)c1cc2cnc(Nc3ccc(N4CCNCC4)cn3)nc2n1C1CCCC1 [Ribociclib] (max concentration tested 10000 nM)
Solution: 1.54

Problem: // percent inhibition of viability lookup, key: CCn1c(-c2nonc2N)nc2c(C#CC(C)(C)O)ncc(OC[C@H]3CCCNC3)c21 (max concentration tested 10000 nM)
Solution: 11.5

====

Test system: DERL-7 (IL-2 2.5 ng/mL)
MEASUREMENT NOTES: percent inhibition of viability; higher = more inhibition
MEASUREMENT PARAMETERS: 72 h; 100 nM
Below is a list of entries, each paired with its recorded percent inhibition of viability value.
Hi, when you answer, please include the unit after the number. Thanks!

Problem: // percent inhibition of viability lookup, key: CCOc1cc2ncc(C#N)c(Nc3ccc(OCc4ccccn4)c(Cl)c3)c2cc1NC(=O)/C=C/CN(C)C [Neratinib] (max concentration tested 1000 nM)
Solution: 8.45%

Problem: // percent inhibition of viability lookup, key: CNC(=O)c1cccc2cc(Oc3ccnc4cc(OCC5(N)CC5)c(OC)cc34)ccc12 [Lucitanib] (max concentration tested 10000 nM)
Solution: 2.4%

Problem: // percent inhibition of viability lookup, key: CCN(CC)C(=S)SSC(=S)N(CC)CC [Disulfiram] (max concentration tested 100000 nM)
Solution: 22.1%

Problem: // percent inhibition of viability lookup, key: CN(c1ccccc1CNc1nc(Nc2ccc3c(c2)CC(=O)N3)ncc1C(F)(F)F)S(C)(=O)=O (max concentration tested 10000 nM)
Solution: -8.22%

Problem: // percent inhibition of viability lookup, key: S=c1[nH]cnc2nc[nH]c12 [Mercaptopurine] (max concentration tested 10000 nM)
Solution: 0.98%

Problem: // percent inhibition of viability lookup, key: COc1cccc2c1c(O)c(C(=O)N(C)c1ccc(C(F)(F)F)cc1)c(=O)n2C [Tasquinimod] (max concentration tested 10000 nM)
Solution: -7.69%
